Molecular target: aldosterone synthase (Homo sapiens, UniProt P19099)
Sequence (P19099 25-503): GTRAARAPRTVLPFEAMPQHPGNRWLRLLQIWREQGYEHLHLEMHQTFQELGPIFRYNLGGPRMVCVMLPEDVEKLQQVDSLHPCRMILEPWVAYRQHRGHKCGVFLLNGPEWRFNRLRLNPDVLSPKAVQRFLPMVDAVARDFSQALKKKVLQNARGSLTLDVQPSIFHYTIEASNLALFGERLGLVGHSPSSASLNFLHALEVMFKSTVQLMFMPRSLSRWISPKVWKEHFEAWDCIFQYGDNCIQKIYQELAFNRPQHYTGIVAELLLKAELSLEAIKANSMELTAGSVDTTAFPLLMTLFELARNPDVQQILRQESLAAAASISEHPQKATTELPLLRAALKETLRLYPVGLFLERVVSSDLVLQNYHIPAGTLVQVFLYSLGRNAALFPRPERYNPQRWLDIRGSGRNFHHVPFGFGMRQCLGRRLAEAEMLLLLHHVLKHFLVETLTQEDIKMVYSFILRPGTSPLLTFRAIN
Assay: Aldosterone production in Ang II-stimulated NCI-H295R cells (aldosterone synthase inhibition)
Settings: AS: aldosterone synthase
Parameter IC50: see the listing below.

Please review the following examples before continuing.
Compound | Measured property | Measured result
CC(C)(C)C1C(=O)N(Cc2ccc(Cl)cc2)Cc2cncn21 (single isomer, unassigned) | IC50 | 3 nM
CC(C)C1C(=O)N(Cc2cccc(F)c2)Cc2cncn21 (single isomer, unassigned) | IC50 | 231 nM
CCC1(C(C)(C)C)C(=O)N(Cc2ccc(F)cc2)Cc2cncn21 (single isomer, unassigned) | IC50 | 139 nM
CCC(C)(C)C1C(=O)N(CC2CCCCC2)Cc2cncn21 (single isomer, unassigned) | IC50 | 7 nM
O=C1C(C2CCC2)n2cncc2CCN1Cc1ccc(F)cc1 (single isomer, unassigned) | IC50 | 197 nM
O=C1C(C2CCC2)n2cncc2CN1Cc1ccc(F)cc1 (single isomer, unassigned) | IC50 | 18 nM

Data request: Entry under review: O=C1N(Cc2ccc(F)cc2)Cc2cncn2C12CCCCC2 . Reported IC50?
Data returned: 73 nM

Data request: Record: CCC(C)(C)C1C(=O)N(Cc2cccc(F)c2)CCc2cncn21 (single isomer, unassigned)
Data returned: 48 nM

Data request: // query: N#Cc1ccc(CN2Cc3cncn3C(C3CC3)C2=O)cc1 (single isomer, unassigned)
Data returned: 66 nM

Data request: Now give it for CC(C)C1C(=O)N(CC2CCCCC2)Cc2cncn21 (single isomer, unassigned) too.
Data returned: 11 nM

Data request: Likewise for CCC(C)(C)C1C(=O)N(CC2CCOCC2)Cc2cncn21 (single isomer, unassigned) ?
Data returned: 190 nM

* * *

// reported inhibition at 10 µM for each item listed
Target: human aromatase (Homo sapiens)
Construct: purchased Gentest (Woburn, Mass.)
Test: Human aromatase assay with dibenzylfluorescein substrate (fluorescence)
Assay type: biochemical
Settings: 1.5 h; percentage of inhibitory rate at 10 μM; ARO: Aromatase; read-out: ARO % I @ 10 μM
A number alone suffices; assume %.

Here's what some known entries look like.
Molecule | inhibition at 10 µM [%]
CCC(C)(C)C1C(=O)N(CC2CCCCC2)Cc2cncn21 (single isomer, unassigned) | 50
CCC(C)(C)C1C(=O)N(Cc2cccc(F)c2)CCc2cncn21 (single isomer, unassigned) | 60
O=C1C(C2CCC2)n2cncc2CN1Cc1ccc(F)cc1 (single isomer, unassigned) | 93

Data request: Enter reported inhibition at 10 µM observed with human aromatase (Homo sapiens) for N#Cc1ccc(CN2Cc3cncn3C(C3CC3)C2=O)cc1 (single isomer, unassigned)
Data returned: 74

Data request: Here is the next molecule: O=C1C(C2CCC2)n2cncc2CCN1Cc1ccc(F)cc1 (single isomer, unassigned)
Data returned: 99

Data request: Subsequent entry: CC(C)C1C(=O)N(Cc2cccc(F)c2)Cc2cncn21 (single isomer, unassigned)
Data returned: 94

Data request: What do we get for CC(C)(C)C1C(=O)N(Cc2ccc(Cl)cc2)Cc2cncn21 (single isomer, unassigned) ?
Data returned: 51

Data request: Note, next up: CCC1(C(C)(C)C)C(=O)N(Cc2ccc(F)cc2)Cc2cncn21 (single isomer, unassigned)
Data returned: 18

Data request: Repeat for the following molecule: CC(C)C1C(=O)N(CC2CCCCC2)Cc2cncn21 (single isomer, unassigned)
Data returned: 48

* * *

A collection of compounds and their measured 11B1 % I @ 100 nM
Molecular target: CYP11B1 (Homo sapiens)
Construct: Thus, the NCI-H295R cells have Cyp 11 B1 (steroid 11 p-hydroxylase); host or cells: NCI-H295R
Sequence (P15538 25-503): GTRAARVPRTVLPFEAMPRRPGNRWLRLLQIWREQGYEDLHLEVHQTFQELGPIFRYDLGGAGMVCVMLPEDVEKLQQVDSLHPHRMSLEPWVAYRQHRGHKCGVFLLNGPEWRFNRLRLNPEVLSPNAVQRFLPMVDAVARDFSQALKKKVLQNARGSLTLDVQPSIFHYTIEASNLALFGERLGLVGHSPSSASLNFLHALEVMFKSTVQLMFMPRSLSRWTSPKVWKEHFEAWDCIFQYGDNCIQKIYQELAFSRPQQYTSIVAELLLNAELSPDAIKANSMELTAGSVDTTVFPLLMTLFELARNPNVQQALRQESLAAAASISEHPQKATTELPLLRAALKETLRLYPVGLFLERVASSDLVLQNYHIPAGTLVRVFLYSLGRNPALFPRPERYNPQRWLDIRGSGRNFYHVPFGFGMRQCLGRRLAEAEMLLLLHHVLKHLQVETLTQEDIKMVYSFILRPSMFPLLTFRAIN
Experiment: CYP11B1 inhibition in NCI-H295R cells (steroid release by radioimmunoassay)
Assay type: cell-based
Conditions: percentage of inhibitory rate at 100 nM; 11B1: CYP11B1
# unit: % | format: bare number

Compound | 11B1 % I @ 100 nM (%)
O=C1N(Cc2ccc(F)cc2)Cc2cncn2C12CCCCC2 | 99

Data request: Name the reported 11B1 % I @ 100 nM value associated with the compound N#Cc1ccc(CN2Cc3cncn3C(C3CC3)C2=O)cc1 (single isomer, unassigned)
Data returned: 95

Data request: And for CC(C)(C)C1C(=O)N(Cc2ccc(Cl)cc2)Cc2cncn21 (single isomer, unassigned) ?
Data returned: 98

Data request: What would you report for CCC(C)(C)C1C(=O)N(Cc2cccc(F)c2)CCc2cncn21 (single isomer, unassigned) ?
Data returned: 100
